For each entry below, report its pIC50 value.
Target: equine butyrylcholinesterase (eqBChE) (Equus caballus)
Construct: purchased
Assay: Butyrylcholinesterase inhibition (adapted Ellman's method)
Assay type: biochemical
Conditions: eqBChE; read-out: BChE Inhib IC50
Protocol: The enzyme inhibition of electric eel acetylcholinesterase (eeAChE) and equine butyrylcholinesterase (eqBChE) was performed according to an adaptation of Elmman’s method. […] After 15 min of reaction, […] (AChI) or butyrylcholine iodide (BChI) and 5,5’-dithiobis-(2-nitrobenzoic acid) (DTNB) were added to both solutions contained in spectrophotometer cuvettes, and the absorbance at 405 nm was recorded for 5 min (time interval = 1 s, slid width = 1 nm). […]
One number for each entry, as −log10 of the molar value.

Completed entries (count: 5):
What does the data say about its pIC50? Entry: CCN(C)C(=O)Oc1cccc(NC(=O)c2cc(OC)c(O)c(OC)c2)c1
4.51

What does the data say about its pIC50? Entry: CCN(C)C(=O)Oc1cccc(NC(=O)/C=C/C=C/c2ccc(O)c(O)c2)c1
5.24

What does the data say about its pIC50? Entry: COc1cc(C(=O)Nc2cccc(OC(=O)N(C)C)c2)cc(OC)c1O
4.17

What does the data say about its pIC50? Entry: CCN(C)C(=O)Oc1cccc(NC(=O)/C=C/C=C/c2ccc3c(c2)OCO3)c1
4.82

What does the data say about its pIC50? Entry: CCN(C)C(=O)Oc1cccc(CNC(=O)/C=C/c2ccc3c(c2)OCO3)c1
6.05

Provide pIC50 values for the following items, in order.
1. CCN(C)C(=O)Oc1cccc(NC(=O)C2(C)CCc3c(C)c(O)c(C)c(C)c3O2)c1 (stereo not shown)
2. CCN(C)C(=O)Oc1cccc(CNC(=O)c2cc(OC)c(O)c(OC)c2)c1

4.44
4.12

---

target: equine butyrylcholinesterase (eqBChE) (Equus caballus); construct: purchased; assay: Butyrylcholinesterase inhibition (adapted Ellman's method); assay type: biochemical; conditions: SI = IC50 (AChE)/IC50 (BChE)
Where SI (selectivity index) equals or exceeds 9, the correct label is Met; where it does not, the label is Not met.

Is reported SI (selectivity index) greater than or equal to 9 here: CCN(C)C(=O)Oc1cccc(CNC(=O)C2(C)CCc3c(C)c(O)c(C)c(C)c3O2)c1 (stereo not shown) [4BY2]
Not met

Is reported SI (selectivity index) greater than or equal to 9 here: CCN(C)C(=O)Oc1cccc(CNC(=O)/C=C/c2ccc3c(c2)OCO3)c1 [4BY3]
Met

Is reported SI (selectivity index) greater than or equal to 9 here: CCN(C)C(=O)Oc1cccc(NC(=O)C2(C)CCc3c(C)c(O)c(C)c(C)c3O2)c1 (stereo not shown) [4AY2]
Not met

Is reported SI (selectivity index) greater than or equal to 9 here: CCN(C)C(=O)Oc1cccc(NC(=O)/C=C/C=C/c2ccc3c(c2)OCO3)c1 [4AY4]
Not met

Is reported SI (selectivity index) greater than or equal to 9 here: CCN(C)C(=O)Oc1cccc(NC(=O)/C=C/c2ccc3c(c2)OCO3)c1 [4AY3]
Met

Is reported SI (selectivity index) greater than or equal to 9 here: CCN(C)C(=O)Oc1cccc(NC(=O)/C=C/C=C/c2ccc(O)c(O)c2)c1 [4AY6]
Not met

We next turn to a different molecule, shown below.
Is reported SI (selectivity index) greater than or equal to 9 here: CCN(C)C(=O)Oc1cccc(NC(=O)/C=C/c2ccc(O)c(O)c2)c1 [4AY5]
Met

---

system: SH-SY5Y human neuroblastoma cell line; experiment: Cell viability dose-response screening (MTT); assay type: cell-based; conditions: 24 h
Cut-off 10 µM on highest nontoxic concentration: below means met, at or above means not met.

Quick check: highest nontoxic concentration of CCN(C)C(=O)Oc1cccc(CNC(=O)c2cc(OC)c(O)c(OC)c2)c1 under 10 µM?
not met

***
Quick check: highest nontoxic concentration of CCN(C)C(=O)Oc1cccc(CNC(=O)/C=C/c2ccc3c(c2)OCO3)c1 under 10 µM?
met

Quick check: highest nontoxic concentration of CCN(C)C(=O)Oc1cccc(NC(=O)/C=C/c2ccc(O)c(O)c2)c1 under 10 µM?
met

Quick check: highest nontoxic concentration of COc1cc(C(=O)Nc2cccc(OC(=O)N(C)C)c2)cc(OC)c1O under 10 µM?
met

---

biological target: Aβ1–42 (Homo sapiens); construct: the Aβ1–42 peptide (Shanghai Royobiotech Co., Ltd., Shanghai, China); purchased Shanghai Royobiotech Co., Ltd; experiment: Inhibition of Aβ1–42 self-aggregation (ThT fluorescence); format: biochemical; conditions: read-out: % Aβ42 Self-Agg Inhib
Sequence (P05067 672-713): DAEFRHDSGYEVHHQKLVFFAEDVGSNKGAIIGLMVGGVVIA
Where inhibition at 40 µM equals or exceeds 50%, the correct label is T; where it does not, the label is F.

Record excerpt, results attached:
Is reported inhibition at 40 µM greater than or equal to 50% here: CCN(C)C(=O)Oc1cccc(CNC(=O)C2(C)CCc3c(C)c(O)c(C)c(C)c3O2)c1 (stereo not drawn)
F

Is reported inhibition at 40 µM greater than or equal to 50% here: CCN(C)C(=O)Oc1cccc(NC(=O)C2(C)CCc3c(C)c(O)c(C)c(C)c3O2)c1 (stereo not drawn)
F

Is reported inhibition at 40 µM greater than or equal to 50% here: CCN(C)C(=O)Oc1cccc(NC(=O)/C=C/c2ccc3c(c2)OCO3)c1
F

Is reported inhibition at 40 µM greater than or equal to 50% here: CCN(C)C(=O)Oc1cccc(CNC(=O)/C=C/c2ccc3c(c2)OCO3)c1
F

Is reported inhibition at 40 µM greater than or equal to 50% here: CCN(C)C(=O)Oc1cccc(NC(=O)/C=C/C=C/c2ccc(O)c(O)c2)c1
T

Is reported inhibition at 40 µM greater than or equal to 50% here: COc1cc(/C=C/C(=O)CC(=O)/C=C/c2ccc(O)c(OC)c2)ccc1O [Curcumin, reference compound]
T

Is reported inhibition at 40 µM greater than or equal to 50% here: CCN(C)C(=O)Oc1cccc(NC(=O)/C=C/c2ccc(O)c(O)c2)c1
T

Is reported inhibition at 40 µM greater than or equal to 50% here: CCN(C)C(=O)Oc1cccc(CNC(=O)c2cc(OC)c(O)c(OC)c2)c1
T

We next turn to a different compound, shown below.
Is reported inhibition at 40 µM greater than or equal to 50% here: CCN(C)C(=O)Oc1cccc(NC(=O)c2cc(OC)c(O)c(OC)c2)c1
F

---

Hi! I'm sharing some pIC50 results obtained with UniProt:O42275.
Sequence (O42275 24-633): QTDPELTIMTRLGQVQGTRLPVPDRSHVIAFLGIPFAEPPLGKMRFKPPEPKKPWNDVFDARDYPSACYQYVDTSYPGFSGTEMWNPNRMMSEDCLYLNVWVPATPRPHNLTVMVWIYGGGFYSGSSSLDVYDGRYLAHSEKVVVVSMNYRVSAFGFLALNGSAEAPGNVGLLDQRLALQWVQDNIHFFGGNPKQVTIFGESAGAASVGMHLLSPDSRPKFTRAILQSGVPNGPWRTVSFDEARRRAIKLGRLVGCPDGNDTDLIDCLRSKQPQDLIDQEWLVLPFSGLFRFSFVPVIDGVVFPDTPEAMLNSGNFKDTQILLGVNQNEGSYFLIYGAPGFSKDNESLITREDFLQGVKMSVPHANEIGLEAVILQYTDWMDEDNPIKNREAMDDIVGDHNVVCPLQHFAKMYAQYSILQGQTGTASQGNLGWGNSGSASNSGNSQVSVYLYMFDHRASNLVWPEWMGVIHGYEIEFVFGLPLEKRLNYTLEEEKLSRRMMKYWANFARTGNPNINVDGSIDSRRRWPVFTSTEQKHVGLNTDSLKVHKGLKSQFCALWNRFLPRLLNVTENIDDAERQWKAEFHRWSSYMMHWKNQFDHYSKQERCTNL
pIC50: −log10 of the molar value.

Completed entries (count: 2):
Record lookup: for UniProt:O42275, what pIC50 belongs to COc1cc(C(=O)Nc2cccc(OC(=O)N(C)C)c2)cc(OC)c1O ?
< 3.70

Record lookup: for UniProt:O42275, what pIC50 belongs to CCN(C)C(=O)Oc1cccc(CNC(=O)c2cc(OC)c(O)c(OC)c2)c1 ?
< 3.70

# ---- query molecule ----
Record lookup: for UniProt:O42275, what pIC50 belongs to CCN(C)C(=O)Oc1cccc(NC(=O)c2cc(OC)c(O)c(OC)c2)c1 ?
< 3.70

---

target: equine butyrylcholinesterase (eqBChE) (Equus caballus, UniProt P81908)
Sequence (P81908 whole entry): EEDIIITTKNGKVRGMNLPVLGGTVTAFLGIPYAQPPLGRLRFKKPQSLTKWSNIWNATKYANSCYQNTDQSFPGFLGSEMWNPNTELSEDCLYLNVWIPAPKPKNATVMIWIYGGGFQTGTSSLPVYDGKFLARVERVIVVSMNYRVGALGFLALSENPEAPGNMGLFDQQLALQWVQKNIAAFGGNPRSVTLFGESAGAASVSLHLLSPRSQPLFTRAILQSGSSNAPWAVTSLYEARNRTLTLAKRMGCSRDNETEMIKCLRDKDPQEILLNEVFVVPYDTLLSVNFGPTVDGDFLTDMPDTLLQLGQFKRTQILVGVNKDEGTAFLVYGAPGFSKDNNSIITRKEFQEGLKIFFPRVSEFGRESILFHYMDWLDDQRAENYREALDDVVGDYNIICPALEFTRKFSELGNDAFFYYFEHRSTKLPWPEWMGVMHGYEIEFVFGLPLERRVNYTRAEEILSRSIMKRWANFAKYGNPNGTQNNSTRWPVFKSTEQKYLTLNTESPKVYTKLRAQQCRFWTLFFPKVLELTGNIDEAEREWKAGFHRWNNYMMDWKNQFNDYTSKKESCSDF
For each entry below, report its pIC50 value.
Numbers only, as −log10 of the molar value.

Completed entries (count: 2):
Record lookup: for equine butyrylcholinesterase (eqBChE) (Equus caballus, UniProt P81908), what pIC50 belongs to CCN(C)C(=O)Oc1cccc(CNC(=O)C2(C)CCc3c(C)c(O)c(C)c(C)c3O2)c1 (stereo not drawn) ?
5.43

Record lookup: for equine butyrylcholinesterase (eqBChE) (Equus caballus, UniProt P81908), what pIC50 belongs to CCN(C)C(=O)Oc1cccc(NC(=O)/C=C/c2ccc3c(c2)OCO3)c1 ?
5.51

# ---- query compound ----
Record lookup: for equine butyrylcholinesterase (eqBChE) (Equus caballus, UniProt P81908), what pIC50 belongs to CCN(C)C(=O)Oc1cccc(NC(=O)/C=C/c2ccc(O)c(O)c2)c1 ?
5.14
